Molecular target: human GCG receptor (human, UniProt P47871 26-477)
Sequence (P47871 26-477): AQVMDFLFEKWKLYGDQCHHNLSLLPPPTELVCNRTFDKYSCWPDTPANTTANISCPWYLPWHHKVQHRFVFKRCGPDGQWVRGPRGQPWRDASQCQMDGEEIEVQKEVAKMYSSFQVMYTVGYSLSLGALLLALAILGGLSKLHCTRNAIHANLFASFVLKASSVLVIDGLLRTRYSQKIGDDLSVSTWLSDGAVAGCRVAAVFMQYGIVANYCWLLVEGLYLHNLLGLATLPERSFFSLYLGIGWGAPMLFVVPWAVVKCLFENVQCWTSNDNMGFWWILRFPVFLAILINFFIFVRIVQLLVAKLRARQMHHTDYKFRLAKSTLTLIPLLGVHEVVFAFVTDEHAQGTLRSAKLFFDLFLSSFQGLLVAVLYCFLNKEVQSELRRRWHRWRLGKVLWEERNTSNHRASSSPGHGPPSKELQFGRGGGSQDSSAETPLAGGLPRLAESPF
Test: cell-based or functional assay
Positions of bridges follow the written chain, without caps; N, C: chain ends. Non-standard residues stand in square brackets, D forms with d. No end group written: not given here. *: point of attachment. Acetyl(2-(4-imidazolyl)) = O=C(Cc1c[nH]cn1)*; Aib = CC(C)(N)C(=O)O
OBSERVABLE: In vitro Activity Compared to Native Peptide (%) vs. Glucagon

BINDER | UNIT_SYMBOL | RELATIONAL_OPERATOR | VALUE_MEASURED
[Acetyl(2-(4-imidazolyl))]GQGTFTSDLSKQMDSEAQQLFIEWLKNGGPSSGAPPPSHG [triple agonist of SEQ ID NO: 16] | % | < | 0.1
[Acetyl(2-(4-imidazolyl))][Aib]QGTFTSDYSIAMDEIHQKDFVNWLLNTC (bridge 16-20) [triple agonist of SEQ ID NO: 87] | % | < | 0.1
[Acetyl(2-(4-imidazolyl))][Aib]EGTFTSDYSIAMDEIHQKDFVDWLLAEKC (bridge 16-20) [triple agonist of SEQ ID NO: 91] | % | = | 16.8
[Acetyl(2-(4-imidazolyl))]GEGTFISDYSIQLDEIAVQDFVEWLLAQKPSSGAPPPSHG [triple agonist of SEQ ID NO: 13] | % | < | 0.1
H[Aib]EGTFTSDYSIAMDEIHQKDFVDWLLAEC (bridge 16-20) [triple agonist of SEQ ID NO: 54] | % | = | 1.4
[Acetyl(2-(4-imidazolyl))][Aib]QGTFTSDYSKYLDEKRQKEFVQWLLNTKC (bridge 16-20) [triple agonist of SEQ ID NO: 88] | % | = | 0.3
H[Aib]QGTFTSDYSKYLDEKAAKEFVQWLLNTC (bridge 16-20) [triple agonist of SEQ ID NO: 29] | % | = | 6
H[Aib]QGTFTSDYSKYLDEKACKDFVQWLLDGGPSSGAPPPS (bridge 16-20; also: ring type not given here) [triple agonist of SEQ ID NO: 32] | % | = | 1.7
